Values from patent US20110195494A1

target.desc: T1, recombinant human DLL4, C-terminally His-tagged extracellular domain (R&D Systems) (human, UniProt Q9NR61 25-522, biotinylated where used in competition ELISA, AlphaScreen and on SA chips)
T1 construct: also called rhDLL4; hDLL4; not shown: C-terminal His tag
assay.explanation: competition ELISA, periplasmic extract
measure.name: ELISA hDLL4 % inhibition (%)

• DLLBII19F04 (VHH, also called DLLBII19F4; not shown: C-terminal c-myc tag and His6 tag) VHH: EVQLVESGGGLVQAEGSLRLSCAASGSTFSTYAMAWYRQAPGKQRELVAGISFDGSTHYAESVKGRFTISRDDAKNTVSLQMNSLKPEDAAVYYCYSVHPSTGFGSWGQGTQVTVSS = 98
• DLLBII17C01 (VHH, tested as periplasmic extract; also called DLLBII17C1; not shown: C-terminal c-myc tag and His6 tag) VHH: EVQLVESGGGLVQAGGSLRLSCAASGFTFDDYPIGWLRQAPGKEREGVSCISSSDDSTYYADSVKGRFTISSNNAKNTVYLQMNSLKPEDTAVYYCAVRLFSGGCAVVAGTSWADFGSSGQGTQVTVSS = 82
• DLLBII33C05 (VHH, tested as periplasmic extract; also called DLLBII33C5; not shown: C-terminal c-myc tag and His6 tag) VHH: EVQLVESGGGLVQAGGSLRLSCAASGFTLDNYVIGWFRQAPGKEREEVSCISSSGGSTDYLDSVKGRFTISRDNAKNTVYLQMNSLKPEDTAVYYCAADSLPCYYDKMVYDYWGQGTQVTVSS = 86
• DLLBII5B11 (VHH, also called DLLBII05B11; not shown: C-terminal c-myc tag and His6 tag) VHH: EVQLVESGGGLVQPGGSLRLSCAISGFTLDLHVIGWLRQAPGKEREWVSCISSSDGSTYYADSVKGRFTISRDNAKNTVYLQMNSLKPEDTAVYYCAAPWDSWYCGIGNDYDYWGQGTQVTVSS = 98
